Values were extracted from patent USRE50528E1.

Target: EGFR mutant Del19/T790M (Homo sapiens, UniProt P00533, DEL746-750/T790M)
Construct: truncated human JAK3, EGFR mutants such as del E746-A750; purchased Carna Biosciences
Sequence (P00533 with tags, fused parts or gaps DEL746-750/T790M limits assumed): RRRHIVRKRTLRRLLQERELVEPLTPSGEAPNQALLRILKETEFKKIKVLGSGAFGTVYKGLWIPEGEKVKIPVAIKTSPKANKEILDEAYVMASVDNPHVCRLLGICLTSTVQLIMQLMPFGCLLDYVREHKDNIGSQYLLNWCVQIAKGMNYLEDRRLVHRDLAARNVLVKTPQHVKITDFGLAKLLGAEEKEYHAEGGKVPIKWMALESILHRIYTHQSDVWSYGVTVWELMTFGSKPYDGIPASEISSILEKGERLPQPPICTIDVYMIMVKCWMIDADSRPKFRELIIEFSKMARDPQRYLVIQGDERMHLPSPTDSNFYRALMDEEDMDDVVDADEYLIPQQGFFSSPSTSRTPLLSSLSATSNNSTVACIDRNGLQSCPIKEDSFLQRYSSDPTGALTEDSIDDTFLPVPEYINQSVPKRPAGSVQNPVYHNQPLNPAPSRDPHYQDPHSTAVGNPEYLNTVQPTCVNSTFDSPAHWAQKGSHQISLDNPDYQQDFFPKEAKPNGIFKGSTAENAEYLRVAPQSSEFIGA
Assay: Kinase inhibition assay, EGFR del E746-A750/T790M
Assay type: biochemical
Conditions: read-out: EGFR mutants Del19/T790M
pIC50: −log10 of the molar value.

{"Compound": "C=CC(=O)Nc1cc(Nc2nccc(-n3cc(CN4CCC4)c(-c4ccc(F)cc4)n3)n2)c(OC)cc1N1CCOCC1 [Compound 81]", "Subject of test": "EGFR mutant Del19/T790M (Homo sapiens, UniProt P00533, DEL746-750/T790M)", "pIC50": "6.70 to 7.70"}
{"Compound": "C=CC(=O)Nc1cc(Nc2ncc(C)c(-n3cc(CN4CC(O)C4)c(C)n3)n2)c(OC)cc1N(C)CCN(C)C [Compound 31]", "Subject of test": "EGFR mutant Del19/T790M (Homo sapiens, UniProt P00533, DEL746-750/T790M)", "pIC50": "> 7.70"}
{"Compound": "C=CC(=O)Nc1cc(Nc2nccc(-n3cc(CN(C)C)c(-c4ccccc4)n3)n2)c(OC)cc1N(C)C [Compound 83]", "Subject of test": "EGFR mutant Del19/T790M (Homo sapiens, UniProt P00533, DEL746-750/T790M)", "pIC50": "> 7.70"}
{"Compound": "Cc1cc(Nc2nccc(-n3cc(CN4CC(O)C4)c(C4CC4)n3)n2)cc(C)c1OCCO [Compound 151, reference compound]", "Subject of test": "EGFR mutant Del19/T790M (Homo sapiens, UniProt P00533, DEL746-750/T790M)", "pIC50": "6.00 to 6.70"}
{"Compound": "C=CC(=O)Nc1cc(Nc2nccc(-n3cc(CN4CCC4)c(C)n3)n2)c(OC)cc1C1=CCN(C)CC1 [Compound 59]", "Subject of test": "EGFR mutant Del19/T790M (Homo sapiens, UniProt P00533, DEL746-750/T790M)", "pIC50": "> 7.70"}
{"Compound": "C=CC(=O)Nc1cc(Nc2ncc(C)c(-n3cc(CN4C[C@H](O)[C@H](OC)C4)c(C)n3)n2)c(OC)cc1N1CCOCC1 [Compound 26]", "Subject of test": "EGFR mutant Del19/T790M (Homo sapiens, UniProt P00533, DEL746-750/T790M)", "pIC50": "> 7.70"}
{"Compound": "C=CC(=O)Nc1cc(Nc2nccc(-n3cc(CN(C)C)c(C)n3)n2)c(OC)cc1N1CCN(CCF)CC1 [Compound 79]", "Subject of test": "EGFR mutant Del19/T790M (Homo sapiens, UniProt P00533, DEL746-750/T790M)", "pIC50": "> 7.70"}
{"Compound": "C=CC(=O)Nc1cc(Nc2nccc(-n3cc(CN(C)C)c(C4CC4)n3)n2)c(OC)cc1N(C)CCOC [Compound 106]", "Subject of test": "EGFR mutant Del19/T790M (Homo sapiens, UniProt P00533, DEL746-750/T790M)", "pIC50": "> 7.70"}
{"Compound": "C=CC(=O)Nc1cc(Nc2nccc(-n3cc(CN(C)C)c(-c4ccncc4)n3)n2)c(OC)cc1N1CCOCC1 [Compound 136]", "Subject of test": "EGFR mutant Del19/T790M (Homo sapiens, UniProt P00533, DEL746-750/T790M)", "pIC50": "> 7.70"}
{"Compound": "C=CC(=O)Nc1cc(Nc2ncc(C)c(-n3cc(CN4CCC4)c(C(C)C)n3)n2)c(OC)cc1N1CCOCC1 [Compound 125]", "Subject of test": "EGFR mutant Del19/T790M (Homo sapiens, UniProt P00533, DEL746-750/T790M)", "pIC50": "> 7.70"}
{"Compound": "C=CC(=O)Nc1cc(Nc2nccc(-n3cc(CN4CCC4)cn3)n2)c(OC)cc1N1CCOCC1 [Compound 34]", "Subject of test": "EGFR mutant Del19/T790M (Homo sapiens, UniProt P00533, DEL746-750/T790M)", "pIC50": "> 7.70"}
{"Compound": "C=CC(=O)Nc1cc(Nc2ncc(C)c(-n3cc(CN(C)C)c(C(C)(C)C)n3)n2)c(OC)cc1N1CCOCC1 [Compound 7]", "Subject of test": "EGFR mutant Del19/T790M (Homo sapiens, UniProt P00533, DEL746-750/T790M)", "pIC50": "> 7.70"}
{"Compound": "C=CC(=O)Nc1cc(Nc2nccc(-n3cc(CN4CC(OC)C4)c(C)n3)n2)c(OC)cc1N1CCOCC1 [Compound 44]", "Subject of test": "EGFR mutant Del19/T790M (Homo sapiens, UniProt P00533, DEL746-750/T790M)", "pIC50": "6.70 to 7.70"}
{"Compound": "C=CC(=O)Nc1cc(Nc2ncc(C)c(-n3cc(CN4CCC4)c(-c4ccccc4)n3)n2)c(OC)cc1N1CCOCC1 [Compound 121]", "Subject of test": "EGFR mutant Del19/T790M (Homo sapiens, UniProt P00533, DEL746-750/T790M)", "pIC50": "> 7.70"}
{"Compound": "Cc1cc(C)cc(Nc2nccc(-n3cc(CN4CC(O)C4)c(C)n3)n2)c1 [Compound 147, reference compound]", "Subject of test": "EGFR mutant Del19/T790M (Homo sapiens, UniProt P00533, DEL746-750/T790M)", "pIC50": "< 6.00"}
{"Compound": "C=CC(=O)Nc1cc(Nc2ncc(C)c(-n3cc(CN4CCC4)cn3)n2)c(OC)cc1N1CCCN(C)CC1 [Compound 41]", "Subject of test": "EGFR mutant Del19/T790M (Homo sapiens, UniProt P00533, DEL746-750/T790M)", "pIC50": "> 7.70"}
{"Compound": "Cc1cn(-c2ccnc(Nc3ccc(-c4ccccc4)c(C)c3)n2)cc1CN1CC(O)C1 [Compound 150, reference compound]", "Subject of test": "EGFR mutant Del19/T790M (Homo sapiens, UniProt P00533, DEL746-750/T790M)", "pIC50": "< 6.00"}
{"Compound": "C=CC(=O)Nc1cc(Nc2nccc(-n3cc(CN(C)C)c(C(C)C)n3)n2)c(OC)cc1N(C)CCOC [Compound 112]", "Subject of test": "EGFR mutant Del19/T790M (Homo sapiens, UniProt P00533, DEL746-750/T790M)", "pIC50": "> 7.70"}
{"Compound": "CCC(=O)Nc1cc(Nc2nccc(-n3cc(CN4CCC4)c(-c4ccccc4)n3)n2)c(OC)cc1N1CCOCC1 [Compound 158, reference compound]", "Subject of test": "EGFR mutant Del19/T790M (Homo sapiens, UniProt P00533, DEL746-750/T790M)", "pIC50": "< 6.00"}
{"Compound": "C=C(F)C(=O)Nc1cc(Nc2nccc(-n3cc(CN4CCC4)c(-c4ccccc4)n3)n2)c(OC)cc1N1CCOCC1 [Compound 159, reference compound]", "Subject of test": "EGFR mutant Del19/T790M (Homo sapiens, UniProt P00533, DEL746-750/T790M)", "pIC50": "6.70 to 7.70"}
{"Compound": "C=CC(=O)Nc1cc(Nc2ncc(C)c(-n3cc(CN4C[C@@H](O)[C@@H](O)C4)c(C)n3)n2)c(OC)cc1N1CCOCC1 [Compound 25]", "Subject of test": "EGFR mutant Del19/T790M (Homo sapiens, UniProt P00533, DEL746-750/T790M)", "pIC50": "> 7.70"}
{"Compound": "C=CC(=O)Nc1cc(Nc2nccc(-n3cc(CN4CCC4)c(C)n3)n2)c(OC)cc1N1CCOCC1 [Compound 14]", "Subject of test": "EGFR mutant Del19/T790M (Homo sapiens, UniProt P00533, DEL746-750/T790M)", "pIC50": "> 7.70"}
{"Compound": "C=CC(=O)Nc1cc(Nc2ncc(C)c(-n3cc(CN4C[C@H](O)[C@H](OC)C4)cn3)n2)c(OC)cc1N(C)CCN(C)C [Compound 43]", "Subject of test": "EGFR mutant Del19/T790M (Homo sapiens, UniProt P00533, DEL746-750/T790M)", "pIC50": "> 7.70"}
{"Compound": "C=CC(=O)Nc1cc(Nc2nccc(-n3cc(CN4CCC4)c(C4CC4)n3)n2)c(OC)cc1N1CCOCC1 [Compound 55]", "Subject of test": "EGFR mutant Del19/T790M (Homo sapiens, UniProt P00533, DEL746-750/T790M)", "pIC50": "> 7.70"}
{"Compound": "C=CC(=O)Nc1cc(Nc2nccc(-n3cc(CN4CCC4)c(C)n3)n2)c(OC)cc1-c1ccccc1OC [Compound 68]", "Subject of test": "EGFR mutant Del19/T790M (Homo sapiens, UniProt P00533, DEL746-750/T790M)", "pIC50": "6.70 to 7.70"}
{"Compound": "CCC(=O)Nc1cc(Nc2nccc(-n3cc(CN(C)C)c(-c4ccccc4)n3)n2)c(OC)cc1N1CCOCC1 [Compound 157, reference compound]", "Subject of test": "EGFR mutant Del19/T790M (Homo sapiens, UniProt P00533, DEL746-750/T790M)", "pIC50": "< 6.00"}
{"Compound": "C=CC(=O)Nc1cc(Nc2nccc(-n3cc(CN4CCC4)c(-c4ccccc4)n3)n2)c(OC)cc1N1CCN(C(C)=O)CC1 [Compound 134]", "Subject of test": "EGFR mutant Del19/T790M (Homo sapiens, UniProt P00533, DEL746-750/T790M)", "pIC50": "> 7.70"}
